Tested on: HeLa cells
Assay: HeLa cytotoxicity assay (ATPlite)
Conditions: HeLa cells

# cpd_smiles, unit_text, Cytotoxicity Emax
rows = [
    ("CN1C(=O)C2(CCN(c3cnc(C#N)c(Cl)c3)CC2)c2cc(Br)ccc21", "%", 12.8),
    ("Cc1cc(N2CCC3(CC2)C(=O)N(C)c2ccc(F)cc23)cc(F)c1C#N", "%", 50.9),
    ("COc1cc(N2CCC3(CC2)C(=O)N(C)c2ccc(F)cc23)cnc1C#N", "%", 37.6),
    ("CN1C(=O)C2(CCN(c3cnc(N4CCOCC4)c(Cl)c3)CC2)c2cc(F)ccc21", "%", 41.6),
]

* * *

Test: in vitro
Conditions: human
Experimental: Compound serial dilutions (9 point, fourfold) were prepared in DMSO, and 200 nL was transferred to black, 384-well, clear-bottom microtiter plates (Corning, Amsterdam, The Netherlands) via acoustic drop ejection ([36], [50]). […] After 72 h, GFP expression was quantified using an EnVision Multimode Plate Reader (Perkin Elmer, Zaventem, Belgium), and data were normalized to untreated and media-only (no virus) controls. […]

# cpd_smiles, CC50
records = [
    ("CN1C(=O)C2(CCN(c3ccc(C#N)c(Cl)c3)CC2)c2cc(F)ccc21", "> 6.65 µM"),
]

* * *

System: HeLa cells
Details: HeLa cytotoxicity, line RSV-A/Long

# cpd_smiles, CC50
records = [
    ("CN1C(=O)C2(CCN(c3cnc(C#N)c(Cl)c3)CC2)c2cc(Br)ccc21", "> 50 µM"),
]

* * *

Assay: in vitro
Settings: human

# cpd_smiles, CC50
records = [
    ("CN1C(=O)C2(CCN(c3cnc(C#N)c(Cl)c3)CC2)c2cc(Br)ccc21", "> 50 µM"),
]

* * *

Biological target: RSV L+P-JNJ-7184 complex (Human respiratory syncytial virus A)
Construct: a biophysical SPR assay was established using full-length RSV L+P complex; Twin-Strep-tag (N)
Sequence (P03421 whole entry): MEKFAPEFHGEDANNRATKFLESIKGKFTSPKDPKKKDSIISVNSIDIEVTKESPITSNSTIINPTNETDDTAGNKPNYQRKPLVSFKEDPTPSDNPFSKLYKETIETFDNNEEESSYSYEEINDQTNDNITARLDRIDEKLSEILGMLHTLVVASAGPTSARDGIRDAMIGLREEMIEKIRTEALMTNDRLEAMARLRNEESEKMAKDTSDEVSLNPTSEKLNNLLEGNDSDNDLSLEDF
Sequence (P28887 whole entry): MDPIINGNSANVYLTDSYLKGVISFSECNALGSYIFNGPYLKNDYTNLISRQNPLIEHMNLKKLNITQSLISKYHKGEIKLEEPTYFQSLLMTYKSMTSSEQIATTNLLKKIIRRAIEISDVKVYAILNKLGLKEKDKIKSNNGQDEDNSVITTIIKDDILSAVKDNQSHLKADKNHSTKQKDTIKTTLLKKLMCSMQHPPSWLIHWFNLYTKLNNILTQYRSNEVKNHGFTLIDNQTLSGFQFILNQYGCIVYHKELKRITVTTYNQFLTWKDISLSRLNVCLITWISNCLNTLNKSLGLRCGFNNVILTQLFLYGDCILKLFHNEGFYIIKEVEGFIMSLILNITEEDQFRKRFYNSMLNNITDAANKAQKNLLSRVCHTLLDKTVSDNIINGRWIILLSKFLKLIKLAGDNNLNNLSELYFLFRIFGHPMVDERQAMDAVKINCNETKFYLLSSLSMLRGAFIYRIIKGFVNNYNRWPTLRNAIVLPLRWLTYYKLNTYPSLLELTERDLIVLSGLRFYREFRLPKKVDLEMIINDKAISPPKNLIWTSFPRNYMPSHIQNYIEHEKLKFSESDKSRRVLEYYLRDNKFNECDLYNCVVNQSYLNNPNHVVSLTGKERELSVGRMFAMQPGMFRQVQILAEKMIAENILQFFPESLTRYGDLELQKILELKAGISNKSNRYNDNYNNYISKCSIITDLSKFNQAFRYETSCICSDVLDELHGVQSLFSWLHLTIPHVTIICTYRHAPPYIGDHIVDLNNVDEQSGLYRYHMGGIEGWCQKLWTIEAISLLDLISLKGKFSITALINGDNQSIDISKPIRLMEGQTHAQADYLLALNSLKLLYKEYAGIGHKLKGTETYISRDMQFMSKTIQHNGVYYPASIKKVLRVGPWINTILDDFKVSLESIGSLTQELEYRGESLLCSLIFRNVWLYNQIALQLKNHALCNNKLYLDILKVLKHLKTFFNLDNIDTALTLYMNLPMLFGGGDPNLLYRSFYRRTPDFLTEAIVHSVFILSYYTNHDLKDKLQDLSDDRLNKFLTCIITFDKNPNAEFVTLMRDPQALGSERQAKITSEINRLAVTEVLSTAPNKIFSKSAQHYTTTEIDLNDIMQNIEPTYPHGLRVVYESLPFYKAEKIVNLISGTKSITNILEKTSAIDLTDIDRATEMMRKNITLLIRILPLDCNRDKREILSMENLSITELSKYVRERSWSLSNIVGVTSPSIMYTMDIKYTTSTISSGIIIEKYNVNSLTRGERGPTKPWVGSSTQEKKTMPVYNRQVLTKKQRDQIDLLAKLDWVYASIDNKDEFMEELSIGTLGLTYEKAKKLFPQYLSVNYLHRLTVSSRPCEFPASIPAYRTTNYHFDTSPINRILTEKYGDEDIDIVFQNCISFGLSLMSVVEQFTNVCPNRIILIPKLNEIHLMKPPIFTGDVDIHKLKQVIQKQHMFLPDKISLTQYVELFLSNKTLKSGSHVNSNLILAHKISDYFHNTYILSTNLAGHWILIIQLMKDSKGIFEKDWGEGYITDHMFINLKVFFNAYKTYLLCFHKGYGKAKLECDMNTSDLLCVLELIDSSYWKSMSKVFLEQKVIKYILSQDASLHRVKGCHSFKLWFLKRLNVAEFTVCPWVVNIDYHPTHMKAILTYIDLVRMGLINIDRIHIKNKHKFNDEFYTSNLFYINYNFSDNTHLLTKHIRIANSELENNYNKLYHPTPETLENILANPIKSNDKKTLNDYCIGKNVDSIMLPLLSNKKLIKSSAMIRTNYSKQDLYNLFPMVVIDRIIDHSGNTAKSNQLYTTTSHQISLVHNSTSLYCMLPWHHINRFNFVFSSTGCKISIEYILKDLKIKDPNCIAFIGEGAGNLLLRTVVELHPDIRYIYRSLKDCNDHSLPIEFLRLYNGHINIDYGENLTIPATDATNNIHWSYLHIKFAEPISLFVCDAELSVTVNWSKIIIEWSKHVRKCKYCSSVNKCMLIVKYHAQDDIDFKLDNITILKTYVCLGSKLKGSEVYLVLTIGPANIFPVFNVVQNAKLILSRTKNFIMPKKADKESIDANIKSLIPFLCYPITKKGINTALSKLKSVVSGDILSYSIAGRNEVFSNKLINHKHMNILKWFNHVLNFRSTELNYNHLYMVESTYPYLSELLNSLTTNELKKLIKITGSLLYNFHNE
Assay: SPR A-B-A competition with connector domain binder JNJ-7184
Settings: 150 nM JNJ-7184 competitor; read-out: SPR KD in the presence of JNJ-7184
pKd: −log10 of the molar value.
endpoint: pKd

# cpd_smiles, measured_on, observed_result
records = [
    ("CN1C(=O)C2(CCN(c3cnc(C#N)c(Cl)c3)CC2)c2cc(Br)ccc21", "RSV L+P-JNJ-7184 complex (Human respiratory syncytial virus A)", 6.28),
]

* * *

Biological target: RSV L+P (Human respiratory syncytial virus A, UniProt P28887)
Construct: Biochemical activity of 1 and 22 against full-length RSV L+P; Twin-Strep-tag (N); made in house; host or cells: Sf9 insect cells (baculovirus, pFastBac Dual)
Assay: De novo RNA synthesis assay (TrC-14, +3 site)
Format: biochemical
Conditions: +3 site, TrC-14 template; read-out: IC50 of de novo pppGA (pppGpA) formation
pIC50: −log10 of the molar value.
endpoint: pIC50

# molecule, measured_on, observed_result
rows = [
    ("CN1C(=O)C2(CCN(c3cnc(C#N)c(Cl)c3)CC2)c2cc(Br)ccc21 [Compound 22]", "RSV L+P (Human respiratory syncytial virus A, UniProt P28887)", 6.54),
]

* * *

System: HeLa cells
Assay: HeLa cytotoxicity assay (ATPlite)
Details: HeLa cells
Consider the cut-off 50%. If the recorded Cytotoxicity Emax is strictly smaller, the label is Yes; if not, the label is No.

# cpd_smiles, label
records = [
    ("N#Cc1ncc(N2CCC3(CC2)C(=O)Nc2ccccc23)cc1Cl", "Yes"),
    ("CN1C(=O)C2(CCN(c3cnc(C#N)c(Cl)c3)CC2)c2cc(F)ccc21", "No"),
    ("CN1C(=O)C2(CCN(c3ccc(C#N)c(Cl)n3)CC2)c2cc(F)ccc21", "No"),
    ("N#Cc1ncc(N2CCC3(CC2)C(=O)N(c2cccnc2)c2ccc(F)cc23)cc1Cl", "Yes"),
    ("N#Cc1ncc(N2CCC3(CC2)C(=O)N(CC2CC2)c2ccc(F)cc23)cc1Cl", "No"),
    ("CN1C(=O)C2(CCN(c3ccc(C#N)c(Cl)c3)CC2)c2cc(F)ccc21", "No"),
    ("N#Cc1ncc(N2CCC3(CC2)C(=O)Nc2ccc(F)cc23)cc1Cl", "No"),
    ("COc1ccc2c(c1)C1(CCN(c3cnc(C#N)c(Cl)c3)CC1)C(=O)N2", "No"),
    ("N#Cc1ncc(N2CCC3(CC2)C(=O)N(CCF)c2ccc(F)cc23)cc1Cl", "No"),
    ("Cc1ccc2c(c1)C1(CCN(c3cnc(C#N)c(Cl)c3)CC1)C(=O)N2", "Yes"),
    ("N#Cc1ncc(N2CCC3(CC2)C(=O)Nc2ccc(Cl)cc23)cc1Cl", "Yes"),
    ("N#Cc1ncc(N2CCC3(CC2)C(=O)Nc2ccc(Br)cc23)cc1Cl", "No"),
]

* * *

System: RSV-B/05_036549
Experiment: microbe, parasite or virus in culture
Type: cell-based
Details: human respiratory syncytial virus; RSV-B/05_036549, HeLa cells, RT-qPCR
pEC50: −log10 of the molar value.
endpoint: pEC50

# compound, endpoint, observed_result
measured = [
    ("CN1C(=O)C2(CCN(c3cnc(C#N)c(Cl)c3)CC2)c2cc(Br)ccc21 [Compound 22]", "pEC50", 6.00),
]

* * *

Molecular target: RSV L+P (Human respiratory syncytial virus A)
Construct: Biochemical activity of 1 and 22 against full-length RSV L+P; Twin-Strep-tag (N); made in house; host or cells: Sf9 insect cells (baculovirus, pFastBac Dual)
Assay: SPR assay
Type: binding
Details: immobilized full-length RSV L+P, 25°C
pKd: −log10 of the molar value.

# cpd_smiles, pKd
measured = [
    ("CN1C(=O)C2(CCN(c3cnc(C#N)c(Cl)c3)CC2)c2cc(Br)ccc21", 6.33),
]

* * *

Target: RSV L+P (Human respiratory syncytial virus A, UniProt P28887)
Construct: Biochemical activity of 1 and 22 against full-length RSV L+P; Twin-Strep-tag (N); made in house; host or cells: Sf9 insect cells (baculovirus, pFastBac Dual)
Test: De novo RNA synthesis assay (TrC-14, +3 site)
Assay type: biochemical
Details: IC50 of 11-mer product, TrC-14 template

# cpd_smiles, unit_text, IC50
records = [
    ("CN1C(=O)C2(CCN(c3cnc(C#N)c(Cl)c3)CC2)c2cc(Br)ccc21", "nM", 480),
]

* * *

Assay: APC-126 cytotoxicity assay (CellTiter-Glo)
Assay type: cell-based
Conditions: hamster; APC-126, 72 h; read-out: Replicon CC50

# cpd_smiles, CC50 at 72 h
measured = [
    ("CN1C(=O)C2(CCN(c3cnc(C#N)c(Cl)c3)CC2)c2cc(Br)ccc21", "> 50 µM"),
]

* * *

Tested on: rgRSV224 virus (RSV A2) in HeLa cells
Experiment: HeLa cell rgRSV224 eGFP reporter viral proliferation assay
Format: cell-based
Settings: human respiratory syncytial virus, HeLa, 72 h, RSV eGFP phenotypic assay in HeLa cells, MOI 1, 72 h, n ≥ 2; read-out: Cellular EC50

# cpd_smiles, unit_text, EC50
measured = [
    ("N#Cc1ncc(N2CCC3(CC2)C(=O)N(c2cccnc2)c2ccc(F)cc23)cc1Cl", "µM", 3.38),
    ("N#Cc1ncc(N2CCC3(CC2)C(=O)N(CC2CC2)c2ccc(F)cc23)cc1Cl", "µM", 8.61),
    ("CN1C(=O)C2(CCN(c3ccc(C#N)c(Cl)c3)CC2)c2cc(F)ccc21", "µM", 4.35),
    ("COc1cc(N2CCC3(CC2)C(=O)N(C)c2ccc(F)cc23)cnc1C#N", "µM", 8.78),
    ("CN1C(=O)C2(CCN(c3cnc(C#N)c(Cl)c3)CC2)c2cc(Br)ccc21", "µM", 2.28),
    ("N#Cc1ncc(N2CCC3(CC2)C(=O)Nc2ccc(Br)cc23)cc1Cl", "µM", 6.68),
    ("N#Cc1ncc(N2CCC3(CC2)C(=O)N(CCF)c2ccc(F)cc23)cc1Cl", "µM", 8.86),
    ("CN1C(=O)C2(CCN(c3cnc(C#N)c(Cl)c3)CC2)c2cc(F)ccc21", "µM", 3.67),
    ("CN1C(=O)C2(CCN(c3cnc(N4CCOCC4)c(Cl)c3)CC2)c2cc(F)ccc21", "µM", 30.3),
]
